As shown below, each of these compounds has a reported relative viability value.
system: NCI-H1703; assay: relative viability (nuclei count vs DMSO), 5 days (fraction); higher = more cells survive; conditions: first compound 0.3162 µM
OBSERVED PROPERTY: relative viability

compound="CC(C)Oc1cc(Nc2nc(N[C@@H](C)c3ccc(F)cn3)ncc2Cl)n[nH]1 [AZ23] + CS(=O)(=O)N1CCN(Cc2cc3nc(-c4cccc5[nH]ncc45)nc(N4CCOCC4)c3s2)CC1 [Pictilisib] (partner 1 µM)" numeric_readout=0.218
compound="CC(C)Oc1cc(Nc2nc(N[C@@H](C)c3ccc(F)cn3)ncc2Cl)n[nH]1 [AZ23] + CC1(C)CCC(c2ccc(Cl)cc2)=C(CN2CCN(c3ccc(C(=O)NS(=O)(=O)c4ccc(N[C@H](CCN5CCOCC5)CSc5ccccc5)c(S(=O)(=O)C(F)(F)F)c4)cc3)CC2)C1 [Navitoclax] (partner 0.5 µM)" numeric_readout=1.08
compound="CC(C)Oc1cc(Nc2nc(N[C@@H](C)c3ccc(F)cn3)ncc2Cl)n[nH]1 [AZ23] + CS(=O)(=O)CCNCc1ccc(-c2ccc3ncnc(Nc4ccc(OCc5cccc(F)c5)c(Cl)c4)c3c2)o1 [Lapatinib] (partner 2 µM)" numeric_readout=1.3
compound="CC(C)Oc1cc(Nc2nc(N[C@@H](C)c3ccc(F)cn3)ncc2Cl)n[nH]1 [AZ23] + O=C(c1cc(Cc2n[nH]c(=O)c3ccccc23)ccc1F)N1CCN(C(=O)C2CC2)CC1 [Olaparib] (partner 8 µM)" numeric_readout=0.397

* * *

test system: NCI-H1975; test: relative viability (nuclei count vs DMSO), 5 days (fraction); higher = more cells survive; settings: first compound 0.08 µM
As shown below, each of these compounds has a reported relative viability value.
OBSERVED PROPERTY: relative viability

compound="CCCCCCCCCCCC1=C(O)C(=O)C=C(O)C1=O [Embelin] + N=C(N)NC(=N)NCCc1ccccc1 [Phenformin] (partner 250 µM)" experimental_system=NCI-H1975 observed_property="relative viability" result=0.445
compound="CCCCCCCCCCCC1=C(O)C(=O)C=C(O)C1=O [Embelin] + O=C(CCCCCCC(=O)Nc1ccccc1)NO [Vorinostat] (partner 1 µM)" experimental_system=NCI-H1975 observed_property="relative viability" result=0.717
compound="CCCCCCCCCCCC1=C(O)C(=O)C=C(O)C1=O [Embelin] + CC(C)C[C@H](NC(=O)[C@H](Cc1ccccc1)NC(=O)c1cnccn1)B(O)O [Bortezomib] (partner 0.002 µM)" experimental_system=NCI-H1975 observed_property="relative viability" result=0.45

* * *

As shown below, each of these molecules has a reported relative viability value.
test system: NCI-H1437; experiment: relative viability (nuclei count vs DMSO), 5 days (fraction); higher = more cells survive; settings: first compound 2.53 µM
OBSERVED PROPERTY: relative viability

molecule="CCCCCCCCCCCC1=C(O)C(=O)C=C(O)C1=O [Embelin] + CS(=O)(=O)CCNCc1ccc(-c2ccc3ncnc(Nc4ccc(OCc5cccc(F)c5)c(Cl)c4)c3c2)o1 [Lapatinib] (partner 2 µM)" numeric_readout=1.04
molecule="CCCCCCCCCCCC1=C(O)C(=O)C=C(O)C1=O [Embelin] + CS(=O)(=O)N1CCN(Cc2cc3nc(-c4cccc5[nH]ncc45)nc(N4CCOCC4)c3s2)CC1 [Pictilisib] (partner 1 µM)" numeric_readout=0.5
molecule="CCCCCCCCCCCC1=C(O)C(=O)C=C(O)C1=O [Embelin] + C[C@]1(O)C[C@@H](c2nc(-c3ccc4ccc(-c5ccccc5)nc4c3)c3c(N)nccn32)C1 [Linsitinib] (partner 1 µM)" numeric_readout=1.24
molecule="CCCCCCCCCCCC1=C(O)C(=O)C=C(O)C1=O [Embelin] + N=C(N)NC(=N)NCCc1ccccc1 [Phenformin] (partner 250 µM)" numeric_readout=0.298
molecule="CCCCCCCCCCCC1=C(O)C(=O)C=C(O)C1=O [Embelin] + CC1(C)CCC(c2ccc(Cl)cc2)=C(CN2CCN(c3ccc(C(=O)NS(=O)(=O)c4ccc(N[C@H](CCN5CCOCC5)CSc5ccccc5)c(S(=O)(=O)C(F)(F)F)c4)cc3)CC2)C1 [Navitoclax] (partner 0.5 µM)" numeric_readout=1.11
molecule="CCCCCCCCCCCC1=C(O)C(=O)C=C(O)C1=O [Embelin] + C[C@@H](Oc1cc(-c2cnn(C3CCNCC3)c2)cnc1N)c1c(Cl)ccc(F)c1Cl [Crizotinib] (partner 1 µM)" numeric_readout=1.01
molecule="CCCCCCCCCCCC1=C(O)C(=O)C=C(O)C1=O [Embelin] + Cc1nc(NC(=O)N2CCC[C@H]2C(N)=O)sc1-c1ccnc(C(C)(C)C(F)(F)F)c1 [Alpelisib] (partner 2 µM)" numeric_readout=1.32
molecule="CCCCCCCCCCCC1=C(O)C(=O)C=C(O)C1=O [Embelin] + CC(=O)Nc1cccc(-n2c(=O)n(C3CC3)c(=O)c3c(Nc4ccc(I)cc4F)n(C)c(=O)c(C)c32)c1 [Trametinib] (partner 0.02 µM)" numeric_readout=0.648

* * *

test system: SK-LU-1; assay: relative viability (nuclei count vs DMSO), 5 days (fraction); higher = more cells survive; settings: first compound 0.04 µM
OBSERVED PROPERTY: relative viability

compound="Clc1ccc(Nc2nnc(Cc3ccncc3)c3ccccc23)cc1 [Vatalanib] + N=C(N)NC(=N)NCCc1ccccc1 [Phenformin] (partner 250 µM)" observed_property="relative viability" result=0.631
compound="C[C@@H]1CN(CC(=O)Nc2ccc3c(c2)Cc2cccc(-c4cc(=O)cc(N5CCOCC5)o4)c2S3)C[C@H](C)O1 + COc1cccc2cc(-c3nc([C@H]4CC[C@H](C(=O)O)CC4)n4ncnc(N)c34)[nH]c12 [OSI-027] (partner 0.5 µM)" observed_property="relative viability" result=0.393
compound="COc1cc(N2CCC(C(N)=O)CC2)ccc1Nc1nc(N)c(Cl)c(Nc2ccccc2S(=O)(=O)C(C)C)n1 [HG-5-88-01] + CC(=O)Nc1cccc(-n2c(=O)n(C3CC3)c(=O)c3c(Nc4ccc(I)cc4F)n(C)c(=O)c(C)c32)c1 [Trametinib] (partner 0.02 µM)" observed_property="relative viability" result=0.394
compound="Clc1ccc(Nc2nnc(Cc3ccncc3)c3ccccc23)cc1 [Vatalanib] + Nc1ncn([C@H]2C[C@H](O)[C@@H](CO)O2)c(=O)n1 [Decitabine] (partner 2 µM)" observed_property="relative viability" result=0.614
compound="Clc1ccc(Nc2nnc(Cc3ccncc3)c3ccccc23)cc1 [Vatalanib] + Nc1nc2[nH]cc(CCc3ccc(C(=O)N[C@@H](CCC(=O)O)C(=O)O)cc3)c2c(=O)[nH]1 [Pemetrexed] (partner 0.2 µM)" observed_property="relative viability" result=0.966
compound="COc1cc(N2CCC(C(N)=O)CC2)ccc1Nc1nc(N)c(Cl)c(Nc2ccccc2S(=O)(=O)C(C)C)n1 [HG-5-88-01] + C[C@@H](Oc1cc(-c2cnn(C3CCNCC3)c2)cnc1N)c1c(Cl)ccc(F)c1Cl [Crizotinib] (partner 1 µM)" observed_property="relative viability" result=1.04

* * *

system: NCI-H661; assay: relative viability (nuclei count vs DMSO), 5 days (fraction); higher = more cells survive; settings: first compound 0.4 µM
OBSERVED PROPERTY: relative viability

molecule="COc1cc(N2CCC(C(N)=O)CC2)ccc1Nc1nc(N)c(Cl)c(Nc2ccccc2S(=O)(=O)C(C)C)n1 [HG-5-88-01] + CC(=O)c1c(C)c2cnc(Nc3ccc(N4CCNCC4)cn3)nc2n(C2CCCC2)c1=O [Palbociclib] (partner 0.5 µM)" numeric_readout=0.416
molecule="COc1cc(N2CCC(C(N)=O)CC2)ccc1Nc1nc(N)c(Cl)c(Nc2ccccc2S(=O)(=O)C(C)C)n1 [HG-5-88-01] + Cc1nc(NC(=O)N2CCC[C@H]2C(N)=O)sc1-c1ccnc(C(C)(C)C(F)(F)F)c1 [Alpelisib] (partner 2 µM)" numeric_readout=0.916

* * *

system: NCI-H1355; test: relative viability (nuclei count vs DMSO), 5 days (fraction); higher = more cells survive; settings: first compound 1.265 µM
Please use Satisfied for relative viability under 0.8 and Not satisfied for everything else, ties included.

compound="COc1cc(N2CCC(C(N)=O)CC2)ccc1Nc1nc(N)c(Cl)c(Nc2ccccc2S(=O)(=O)C(C)C)n1 [HG-5-88-01] + O=C(c1cc(Cc2n[nH]c(=O)c3ccccc23)ccc1F)N1CCN(C(=O)C2CC2)CC1 [Olaparib] (partner 8 µM)" assigned_class=Satisfied
compound="Clc1ccc(Nc2nnc(Cc3ccncc3)c3ccccc23)cc1 [Vatalanib] + CC(C)C[C@H](NC(=O)[C@H](Cc1ccccc1)NC(=O)c1cnccn1)B(O)O [Bortezomib] (partner 0.002 µM)" assigned_class="Not satisfied"
compound="Clc1ccc(Nc2nnc(Cc3ccncc3)c3ccccc23)cc1 [Vatalanib] + O=C(c1cc(Cc2n[nH]c(=O)c3ccccc23)ccc1F)N1CCN(C(=O)C2CC2)CC1 [Olaparib] (partner 8 µM)" assigned_class=Satisfied
compound="COc1cc(N2CCC(C(N)=O)CC2)ccc1Nc1nc(N)c(Cl)c(Nc2ccccc2S(=O)(=O)C(C)C)n1 [HG-5-88-01] + CS(=O)(=O)N1CCN(Cc2cc3nc(-c4cccc5[nH]ncc45)nc(N4CCOCC4)c3s2)CC1 [Pictilisib] (partner 1 µM)" assigned_class=Satisfied
